All figures here come from patent US20260176352A1.

# EC50 values compiled below
# Subject Of Test: T1, A139 iCAPS (CB1 with ICL3 native sequence replaced with BRIL) (human, UniProt P21554 99-414)
# T1 construct: The insert stands inside the chain in place of ICL3
# Measurement Protocol: ELISA, purified IgG on A139 CB1 iCAPS
A complete answer gives the number followed by the unit.

PA2LR3-P4B5 (chimeric) (antibody, human IgG1, kappa, V domains shown) VH: EVQLQQSGAELVRPGSSVKISCKASGYAFSYYWMNWVKQRPGQGLEWIGQIYPGDGDTNYSGRFKGKATLTADKSSSTAYIQLSSLTSEDSAVYFCARSHGNYFPYWGQGTLVTVSA VL: DIVLNQSPAIMSASLGERVTMTCTASSSVSSSYLHWYQQKPGSSPKLWIYSTSNLASGVPARFSGSGSGTSYSLTISSMEAEDAATYYCHQYHRSPLTFGAGTKLEIKR : 0.24 nM

Item: PA2LR3-P2E5 (chimeric) (antibody, V domains shown) VH: EVQLQQSGAELVRPGSSVKISCKASGYAFRDYWMNWVKQRPGQGLEWIGQIYPGDGATNYIGKFKGKATLTADKSSSTAYMQLSSLTSEDSAVYFCARSHGNYFPYWGHGTLVTVSA VL: QIVLTQSPAIMSASLGERVTMTCTASSSVSSSYLHWYQQKPGSSPKLWIYSTSNLASGVPARFSGSGSGTSYSLTISSMEAEDAATYYCQQWSSYPLTFGAGTKLELKR | EC50: 3.2 nM

In plain terms, PA2R3-P1F1 (chimeric) (antibody, V domains shown) VH: EVQLQQSGAELMKPGASVKISCKATGYTFSSYWIEWVKQRPGHGLEWIGEILPGSGSTNYNEKFKGKATFTADTSSNTAYMQLSSLTSEDSAVYYCARGAWLLSYWYFDVWGAGTSVTVSS VL: DIQMMQSTSSLSASLGDRVTISCSASQGISNYLNWYQQKPDGTVKLLIYYTSSLHSGVPSRFSGSGSGTQFSLKINSLQPEDFGSYYCQHHYGTPYTFGGGTKLELKR has a documented EC50 of 1.1 nM

Per the records, this binder ( PA2LR3-P2D3 (chimeric) (antibody, human IgG1, kappa, V domains shown) VH: EVQLQQSGAELVRPGSSVKISCKASGYAFSYYWMNWVKQRPGQGLEWIGQIYPGDGDTNYNGKFKGKATLTADKSSSTAYMQLSSLTSEDSAVYFCARSHGSYFAYWGQGTLVTVSA VL: DIELAQSPASLAVSLGQRATISCRASESVDSYGNSFMHWYQQKPGQPPKLLIYLASNLESGVPARFSGSGSRADFTLTIDPVEADDAATYYCLQYASSPPTFGAGTKLEIKR ) has EC50 equal to 2.6 nM
